system: EKVX NSCLC; assay: NCI-60 one-dose screen, 48 h (100 = growth as untreated, 0 = no growth, -100 = all killed); settings: 10 µM unless noted
The panel holds about 83,000 compounds, 20% with a hit somewhere; the sample as a whole holds those more often. The source made the active and inactive calls. The calls were made as follows: active = growth percent below 10; inactive = the rest.
MEASURED ATTRIBUTE: growth

{"columns": ["MOLECULE SMILES", "SUBJECT OF TEST", "TEST RESULT"],
 "data": [
  ["COc1cc(/C=C/C(=O)/C=C/c2ccc(-n3ccnc3)cc2)ccc1O", "EKVX NSCLC", "97.9% (inactive)"],
  ["C=CCc1nc2ccccc2s1", "EKVX NSCLC", "109% (inactive)"],
  ["CCOC(=O)c1sc2nc(-c3cc(OC)c(OC)c(OC)c3)nc(N3CCOCC3)c2c1C", "EKVX NSCLC", "39.5% (inactive)"],
  ["COc1ccc2nc3cc(Cl)ccc3c(Nc3ccc(O)cc3)c2c1", "EKVX NSCLC", "94.5% (inactive)"],
  ["C=C(C)[C@@H]1CC[C@]2(C)[C@H](CC[C@@H]3[C@@H]([C@@](C)(O)CCC=C(C)C)CC[C@]32C)[C@@]1(C)CCC(=O)N1CCN(C)CC1", "EKVX NSCLC", "-66.4% [100 µM] (active)"]
]}

In: Please report growth for the following compound: `O=C1Nc2ccccc2/C1=C/C(=O)c1ccc(N2CCCC2)cc1`
Out: 76.1% (inactive)

In: Look up and report measured growth for this entry: `CNC(=O)c1cc(Oc2ccc3nc(NC(=O)c4ccc5ncccc5c4)sc3c2)ccn1`
Out: 87.5% (inactive)

In: Give the reported value of growth for this record: `Oc1cc(Nc2ccnc3cc(Cl)ccc23)c2ncccc2c1`
Out: 98.5% (inactive)

In: Note growth for the compound shown: `C=C(C)[C@@H]1CC[C@]2(C(=O)OC)CC[C@]3(C)[C@H](CC[C@@H]4[C@@](C)(CCc5nn[nH]n5)[C@H](C(=C)C)CC[C@]43C)[C@@H]12`
Out: 0.298% [100 µM] (active)
